Origin of the recorded values: ChEMBL document CHEMBL3877325

Test: Cytotoxicity against human HepG2 cells assessed as reduction in cell viability after 24 hrs by MTS assay
Type: toxicity, cell-based
// classify: if (IC50 at 24 h < 10 µM) fulfilled else not fulfilled

> print(dat)
                  compound.structure.string          group
1       O=C(Nc1ccc(Br)cc1)c1cc(Cl)c(Cl)cc1O  not fulfilled
2  O=C(Nc1cc(C(F)(F)F)cc(C(F)(F)F)c1)c1cc(Cl)c(Br)cc1O      fulfilled
3  O=C(Nc1cc(C(F)(F)F)cc(C(F)(F)F)c1)c1cc(Br)c(Cl)cc1O      fulfilled
4  O=C(Nc1cc(C(F)(F)F)cc(C(F)(F)F)c1)c1ccc(Cl)cc1O      fulfilled
5       O=C(Nc1ccc(Cl)c(Cl)c1)c1cc(Br)ccc1O  not fulfilled
6   O=C(Nc1ccc(Cl)c(Cl)c1)c1cc(Cl)c(Br)cc1O  not fulfilled
